test system: TK-10 renal; assay: NCI tumour cell line growth inhibition, 48 h
measurementLabel: TGI

Solved entries (count: 3):
CCOC(=O)/C(C#N)=C\Sc1ccccc1    > 100 µM
CC(C)N1C(C)[C@@H](c2ccccc2)O[P@@]1(=O)CC1=CCCCC1 (some centres undefined)    > 100 µM
CN1C(=O)[C@H](c2c[nH]c3ccccc23)[C@H](c2c[nH]c3ccccc23)C1=O    61.2 µM

Please find the next compound below.
[Q] Param item = `COc1cc2c3c(n([C@@H]4CCOC4)c(=O)c2cc1OC)-c1cc2c(cc1C3=O)OCO2` ; retrieve measured TGI.
[A] > 100 µM

* * *

system: SNB-75 CNS; assay: NCI tumour cell line growth inhibition, 48 h
measurementLabel: TGI

Study these solved cases before continuing.
c1ccc2c(c1)SCCc1cn[nH]c1-2    > 100 µM
Cc1nc2c(O)c3c(c(O)c2nc1C)C1C=CC3CC1    > 92.6 µM
C[C@@H](NC(=O)Cn1c(Cl)nc2ccccc21)c1ccccc1    > 100 µM
CC(C)(C)[Si](C)(C)OCCc1ccccc1C1CC2(S(=O)(=O)c3ccccc3)ON1CC2S(=O)(=O)c1ccccc1 (stereo not given)    > 100 µM

[Q] Query: TGI; subject: `CSc1ccc(NC(=O)Nc2cc(C)ccn2)cc1`
[A] > 100 µM

* * *

TGI by entry:
test system: EKVX NSCLC; assay: NCI tumour cell line growth inhibition, 48 h

CSc1nnc(-c2cc3c([nH]c4ccccc43)c(-c3cccc(O)c3)n2)n1-c1ccc(C)cc1    > 100 µM
CN(C)N=Nc1cccc(C(N)=O)c1    > 100 µM
CN(C(=S)Cc1ccc(Cl)c(Cl)c1)C1CCCC[C@@H]1N1CCCC1 (some centres undefined)    > 100 µM

Okay, next one:
[Q] Sample COc1ccc(/C=C2\CCC(C)c3c2nc(N)c(C#N)c3-c2ccc(OC)c(OC)c2)cc1OC (centres undefined) — what was its TGI?
[A] 8.53 µM

* * *

test system: UACC-62 melanoma; assay: NCI tumour cell line growth inhibition, 48 h
Examples of molecules with documented TGI follow.

CC(C)(O)CCc1cccc(C(=O)c2cnn(-c3ccc(F)cc3)c2N)c1    > 25 µM
CCOC(=O)c1c(N2CCOCC2)ncn(-c2cccc(Cl)c2)c1=O    > 100 µM
COc1c(-c2ccc3c(c2)OCO3)oc2cc(O)cc(O)c2c1=O    > 100 µM
CC(NP(=O)(c1ccccc1)c1ccccc1)c1ccccc1 (stereo not given)    > 100 µM
CCOC(=O)C1=C(O)C(=O)c2ccoc2C1=O    > 100 µM
CNC(=O)CCCNC(=O)CCCCC(=O)N(C)C    > 100 µM

[Q] State the recorded TGI for this entry: `Cc1cc(N(CCC#N)CCC#N)ccc1/C=C(\NC(=O)/C=C/c1ccccc1)C(=O)Nc1ccc(Cl)cc1`
[A] > 14.7 µM

[Q] For the molecule shown here, `COC(=O)c1ccc(C(=O)OC)c2nc3cc(Cl)ccc3nc12` , give the reported TGI.
[A] > 100 µM

[Q] Which measured TGI value corresponds to Cc1ccc2c(n1)NC(=O)C(Cc1ccccc1)(N=[N+]=[N-])C2=O (stereo not given) ?
[A] > 100 µM

[Q] # get_value(readout='TGI', item= C[C@@]1(C(=O)O)CCC[C@]2(C)C1CC[C@]13C[C@@](O)(CO)[C@](O)(CC[C@]12O)C3 (stereo not given in full) )
[A] > 100 µM
